Catalogue of variants with associated abundance fitness
B1: Far upstream element-binding protein 3, residues 75 to 150; numbered along this chain, Q96I24 (parent)
chain: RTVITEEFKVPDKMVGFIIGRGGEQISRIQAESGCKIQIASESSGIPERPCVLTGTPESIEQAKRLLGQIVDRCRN

- Variants of: B1
- assay.info: abundance fitness (aPCA) (normalised: wild type 0, dead -1); higher = more abundant; growth selection in yeast, the domain comes from the species named
- setup.conditions: Homo sapiens
Number only, please.

Consider the reported abundance fitness for these variants:
   mutation_label  observed_result
0            R73P           -0.001
1            Q25Y           -0.197
2             E7Y           -0.037
3            E61A           -0.037
4            G55H            -1.22
5            P50C           -0.054
6            P50E            -0.01
7            I39Q           -0.399

Query: Entry under review: Q25K . Reported abundance fitness?
Response: -0.037

Query: What does the data say about its abundance fitness? Entry: S33V
Response: -0.247

Query: Endpoint output: abundance fitness of S59M . Value?
Response: -0.152
